Each recorded value in this set is attributed to patent US20100298141A1.

# Tested on: duck salad
# assayOverview: Test C flooded paddy test
# Format: in vivo, Heteranthera limosa
# condition: Flood, 250 g ai/ha; scale 0 to 100 (0 no effect, 100 complete control)
# Source text: At time of treatment, test pots were flooded to 3 cm above the soil surface, treated by application of test compounds directly to the paddy water, and then maintained at that water depth for the duration of the test. Treated plants and controls were maintained in a greenhouse for 13 to 15 days, after which time all species were compared to controls and visually evaluated. […] A dash (-) response means no test result.
quantityName: Plant response rating, Ducksalad
// keep it numeric: no unit symbol after the value

Exam item: For the compound shown here, Cn1nc(C(F)(F)F)c(C[S+]([O-])c2cccc[n+]2[O-])c1OCC(F)(F)F (racemic) [Compound 28] , give the reported Plant response rating, Ducksalad.
Marked response: 95

Exam item: Reported Plant response rating, Ducksalad for Cn1nc(C(F)(F)F)c(C[S+]([O-])c2cc(C(C)(C)C)cc[n+]2[O-])c1OC(F)F (racemic) [Compound 24] : what is it?
Marked response: 85

Exam item: Fill in: Plant response rating, Ducksalad of CC(c1c(C(F)(F)F)nn(C)c1OC(F)F)S(=O)(=O)c1ccc(Br)c[n+]1[O-] (racemic) [Compound 23] is ___
Marked response: 80

Exam item: So what does the record say about Plant response rating, Ducksalad for Cc1cc[n+]([O-])c(S(=O)(=O)C(C)c2c(C(F)(F)F)nn(C)c2OC(F)F)c1 (stereo not drawn) [Compound 11] ?
Marked response: 90

Exam item: Dear colleague, I am looking for the recorded Plant response rating, Ducksalad of the following compound: Cn1nc(C(F)(F)F)c(C[S+]([O-])c2cccc[n+]2[O-])c1Cl (stereo not drawn) [Compound 8]
Marked response: 90

Exam item: Please give the measured Plant response rating, Ducksalad for this compound: Cn1nc(C(F)(F)F)c(CS(=O)(=O)c2ccc(Br)c[n+]2[O-])c1OC(F)F [Compound 13]
Marked response: 95

###

# Test system: umbrella sedge
# assayOverview: Test C flooded paddy test
# Assay type: in vivo, Cyperus difformis
# condition: Flood, 250 g ai/ha; scale 0 to 100, 0 no effect, 100 complete control; 13 to 15 days
# Source text: At time of treatment, test pots were flooded to 3 cm above the soil surface, treated by application of test compounds directly to the paddy water, and then maintained at that water depth for the duration of the test. Treated plants and controls were maintained in a greenhouse for 13 to 15 days, after which time all species were compared to controls and visually evaluated. […] A dash (-) response means no test result.
Kindly supply the reported Plant response rating, Sedge, Umbrella values for the records listed here.
Output: the number by itself.

Exam item: Which measured Plant response rating, Sedge, Umbrella value corresponds to "Cn1nc(C(F)(F)F)c(CS(=O)(=O)c2cc(C(C)(C)C)cc[n+]2[O-])c1OC(F)F" ?
Marked response: 85

Exam item: // query Plant response rating, Sedge, Umbrella value for entry "Cn1nc(C(F)(F)F)c(CS(=O)(=O)c2ccc(F)c[n+]2[O-])c1Cl"
Marked response: 90

Exam item: Item under review: [O-][n+]1ccccc1[S+]([O-])C(Cl)c1c(C(F)(F)F)nn(CC(F)(F)F)c1Cl (stereo not shown) . Reported Plant response rating, Sedge, Umbrella?
Marked response: 80

Exam item: # get_value(readout='Plant response rating, Sedge, Umbrella', item= Cn1nc(C(F)(F)F)c(C[S+]([O-])c2cc(Cl)cc[n+]2[O-])c1Cl (racemic) )
Marked response: 95

Exam item: Fill in: Plant response rating, Sedge, Umbrella of CC(Oc1c(C[S+]([O-])c2ccc(Cl)c[n+]2[O-])c(C(F)(F)F)nn1C)C(F)(F)F (stereo not shown) is ___
Marked response: 95

Exam item: Recorded Plant response rating, Sedge, Umbrella for "CCn1nc(C(F)(F)F)c(CS(=O)(=O)c2cc(C)cc[n+]2[O-])c1OCC(F)(F)F" , please?
Marked response: 100

Exam item: Entry under review: Cn1nc(C(F)(F)F)c(C[S+]([O-])c2ccc(F)c[n+]2[O-])c1Cl (stereo not shown) . Reported Plant response rating, Sedge, Umbrella?
Marked response: 100

Exam item: Request the reported Plant response rating, Sedge, Umbrella associated with "Cn1nc(C(F)(F)F)c(CS(=O)(=O)c2ccc(Cl)c[n+]2[O-])c1Cl"
Marked response: 85

Exam item: Please give the measured Plant response rating, Sedge, Umbrella for this compound: "Cc1cc[n+]([O-])c(S(=O)(=O)Cc2c(C(F)(F)F)nn(C)c2Cl)c1"
Marked response: 95

Exam item: Param item = "Cn1nc(C(F)(F)F)c(CS(=O)(=O)c2ccc(Cl)c[n+]2[O-])c1OCC(F)(F)C(F)(F)F" ; retrieve measured Plant response rating, Sedge, Umbrella.
Marked response: 0

Exam item: What value of measured Plant response rating, Sedge, Umbrella is listed for Cc1cc[n+]([O-])c([S+]([O-])Cc2c(C(F)(F)F)nn(CC(F)(F)F)c2Cl)c1 (stereo not shown) ?
Marked response: 50

Exam item: Which Plant response rating, Sedge, Umbrella value is on record for Cn1nc(C(F)(F)F)c(C[S+]([O-])c2ccc(Cl)c[n+]2[O-])c1OCC(F)(F)F (racemic) ?
Marked response: 100

Exam item: Recorded Plant response rating, Sedge, Umbrella for "Cn1nc(C(F)(F)F)c(CS(=O)(=O)c2cc(C(C)(C)C)cc[n+]2[O-])c1OCC(F)(F)F" , please?
Marked response: 70

Exam item: I have this compound here, CCc1cc[n+]([O-])c([S+]([O-])Cc2c(C(F)(F)F)nn(C)c2OCC(F)(F)F)c1 (stereo not shown) , and I need its recorded Plant response rating, Sedge, Umbrella.
Marked response: 100

Exam item: Plant response rating, Sedge, Umbrella lookup needed for "Cc1cc(S(=O)(=O)Cc2c(C(F)(F)F)nn(C)c2OCC(F)(F)F)[n+]([O-])cc1Cl" , thanks.
Marked response: 30

Exam item: Name the reported Plant response rating, Sedge, Umbrella value associated with the compound "Cc1ccc[n+]([O-])c1S(=O)(=O)Cc1c(C(F)(F)F)nn(C)c1OC(F)F"
Marked response: 0
